molecular target: Adenosine receptor A2a (Homo sapiens); assay: Displacement of [3H]ZM-241385 from recombinant human adenosine A2A receptor expressed in HeLa cells at 0.1 uM
measured-metric: inhibition (%)

compound | recorded-measurement
CCCn1c(=O)c2[nH]c(-c3ccc(OCC(=O)NCc4ccncc4)cc3)cc2n(C)c1=O | 3
CCCn1c(=O)c2[nH]c(-c3ccc(OCC(=O)NCc4ccccc4)cc3)cc2n(CCC)c1=O | 38
CCCn1c(=O)n(C)c(=O)c2[nH]c(-c3ccc(OCC(=O)Nc4ccc5c(c4)CCC5=O)cc3)cc21 | 26

A = CCCn1c(=O)c2[nH]c(-c3ccc(OCC(=O)NC(CO)c4ccccc4)cc3)cc2n(CCC)c1=O (stereo not given)
B = O=C(O)COc1ccc(-c2cc3c([nH]2)c(=O)n(CC(F)(F)F)c(=O)n3CC(F)(F)F)cc1
For the pair A and B , which entry has the numerically smaller recorded inhibition? Mark your selection by writing its label.
B
(B: 19%, A: 53%)

---

target: Adenosine receptor A2a (Homo sapiens, UniProt P29274); assay: Displacement of [3H]ZM-241385 from recombinant human adenosine A2A receptor expressed in HeLa cells at 0.1 uM
Sequence (P29274 whole entry): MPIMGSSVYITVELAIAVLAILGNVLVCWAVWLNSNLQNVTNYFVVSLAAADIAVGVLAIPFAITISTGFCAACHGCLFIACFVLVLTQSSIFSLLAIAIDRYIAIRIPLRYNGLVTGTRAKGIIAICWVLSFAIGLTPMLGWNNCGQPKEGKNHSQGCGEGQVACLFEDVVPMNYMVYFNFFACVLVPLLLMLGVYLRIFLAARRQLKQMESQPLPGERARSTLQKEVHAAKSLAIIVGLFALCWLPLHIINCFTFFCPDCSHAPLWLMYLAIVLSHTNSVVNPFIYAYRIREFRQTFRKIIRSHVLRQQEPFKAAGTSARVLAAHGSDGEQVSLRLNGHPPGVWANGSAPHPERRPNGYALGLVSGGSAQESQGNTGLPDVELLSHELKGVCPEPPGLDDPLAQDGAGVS
measured-metric: inhibition (%)

Previously resolved entries follow.
molecule | inhibition (%)
COCCCn1c(=O)c2[nH]c(-c3ccc(OCC(=O)Nc4ccc(F)cc4)cc3)cc2n(CCCOC)c1=O | 20
CCCn1c(=O)c2[nH]c(-c3ccc(OCC(=O)Nc4ccc(CC(=O)O)cc4)cc3)cc2n(CCC)c1=O | 28
CCCn1c(=O)c2[nH]c(-c3ccc(OCC(=O)Nc4ccc(OCc5ccccc5)cc4)cc3)cc2n(CCC)c1=O | 60
CCCn1c(=O)c2[nH]c(-c3ccc(OC(C)(C)C(=O)Nc4ccccc4)cc3)cc2n(CCC)c1=O | 57
CCCn1c(=O)c2[nH]c(-c3ccc(OC(CC)C(=O)Nc4ccc(Br)cc4)cc3)cc2n(CCC)c1=O (configuration not stated) | 82
CCCn1c(=O)c2[nH]c(-c3ccc(N(C=O)CC(=O)Nc4ccc(Br)cc4)cc3)cc2n(CCC)c1=O | 90
Cn1c(=O)c2[nH]c(-c3cccc(OCC(=O)Nc4ccccc4)c3)cc2n(C)c1=O | 32
CCCn1c(=O)c2[nH]c(-c3ccc(OCC(=O)NCc4ccncc4)cc3)cc2n(CCC)c1=O | 18

A = CCCn1c(=O)c2[nH]c(-c3ccc(OCC(=O)Nc4ccc(OC)nc4)cc3)cc2n(CCC)c1=O
B = Cn1c(=O)c2[nH]c(-c3ccc(OCC(=O)N[C@H]4C(O)O[C@H](CO)[C@@H](O)[C@@H]4O)cc3)cc2n(C)c1=O (some centres not stated)
For the pair A and B , which entry has the numerically smaller recorded inhibition? Mark your selection by writing its label.
B

1 = CCCn1c(=O)c2[nH]c(-c3ccc(OCC(=O)Nc4cc(OC)nc(OC)n4)cc3)cc2n(CCC)c1=O
2 = CCCn1c(=O)c2[nH]c(-c3ccc(OCC(=O)O)cc3Cl)cc2n(CCC)c1=O
For the pair 1 and 2 , which entry has the numerically smaller recorded inhibition? Mark your selection by writing its label.
2

1 = CCCn1c(=O)c2[nH]c(-c3ccc(OCC(=O)Nc4ccc(O)cc4)cc3)cc2n(CCC)c1=O
2 = CCCn1c(=O)c2[nH]c(-c3ccc(OCC(=O)N[C@H](C)[C@H](O)c4ccccc4)cc3)cc2n(CCC)c1=O
3 = CCCn1c(=O)c2[nH]c(-c3ccc(OCC(=O)Nc4ncccc4C)cc3)cc2n(C)c1=O
4 = CCCn1c(=O)c2[nH]c(-c3ccc(OCC(=O)Nc4ccc(F)cc4O)cc3)cc2n(CCC)c1=O
Write the entries in order, lowest recorded inhibition first. Dear reader, please state the labels in the requested order.
2, 3, 1, 4
(2: 18%, 3: 26%, 1: 51%, 4: 80%)
